Listed below: koff values for each entry.
# Assayed System: T1, MAdCAM-IgG1 Fc fusion protein (human)
# T1 construct: Made in CHO-DHFR cells; also called MAdCAM-IgFc
# T1 sequence (chain, as listed by the source limits assumed): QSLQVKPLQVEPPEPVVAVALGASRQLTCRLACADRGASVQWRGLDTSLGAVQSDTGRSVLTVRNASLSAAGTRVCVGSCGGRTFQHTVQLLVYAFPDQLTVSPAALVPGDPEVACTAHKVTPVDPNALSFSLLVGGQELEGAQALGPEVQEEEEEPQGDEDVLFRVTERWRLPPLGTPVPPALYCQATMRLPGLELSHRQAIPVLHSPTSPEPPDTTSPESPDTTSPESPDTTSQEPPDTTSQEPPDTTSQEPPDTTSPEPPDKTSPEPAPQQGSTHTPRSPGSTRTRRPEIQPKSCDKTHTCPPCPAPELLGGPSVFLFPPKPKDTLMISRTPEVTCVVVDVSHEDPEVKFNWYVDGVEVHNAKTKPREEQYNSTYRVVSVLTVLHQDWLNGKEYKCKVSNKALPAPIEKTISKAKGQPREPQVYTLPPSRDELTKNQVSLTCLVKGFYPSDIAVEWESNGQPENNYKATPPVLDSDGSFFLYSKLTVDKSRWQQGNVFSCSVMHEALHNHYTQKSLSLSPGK
# Assay Remarks: SPR BIAcore protocol 1: mAb captured, MAdCAM-IgG1 Fc injected
Lab book: enter the figure in s⁻¹, no units written.

For orientation, consider the following solved cases.
Note koff for the binder shown: anti-MAdCAM monoclonal antibody 6.22.2 (antibody, human IgG4, kappa, V domains shown, human IgG4 kappa from hybridoma 6.22.2) VH: QVQLVESGGGVVQPGRSLRLSCAASGHTFSSDGMHWVRQAPGKGLEWVAIIWYDGSNKYYADSVKGRFTISRDNSKNTLYLQMNSLRAEDTAVYYCARDPGYYYGMDVWGQGTTVTVSS VL: EIVLTQSPDFQSVTPKEKVTITCRASQRIGSSLHWYQQKPDQSPKLLIKYASQSFSGVPSRFSGSGSGTNFTLTINGLEAEDAATYYCHQSGRLPLTFGGGTKVEIKR
1.4e-05

Identify measured koff corresponding to anti-MAdCAM monoclonal antibody 7.26.4 (antibody, human IgG2, kappa, V domains shown, human IgG2 kappa from hybridoma 7.26.4) VH: QVQLVQSGAEVKKPGASVKVSCEASGYTFTSYGIDWVRQAPGQGLEWMGWISVYSGNTNYAQKLQGRVTMSTDTSTSTAYMELRSLRSDDTAVYYCAREGSSSSGDYYYGMDVWGQGTTVTVSS VL: DIVMTQTPLSLSVTPGQPASISCKSNQSLLYSDGKTYLFWYLQKPGQPPQLLIYEVSNRFSGVPDRFSGSGSGTDFTLKISRVEAEDVGVYYCMQSIQLPWTFGQGTKVEIKR
0.00026

Pending binder:
Return koff (reported value) for this binder: anti-MAdCAM monoclonal antibody 9.8.2 (antibody, human IgG4, kappa, V domains shown, human IgG4 kappa from hybridoma 9.8.2) VH: QVQLVESGGGVVQPGRSLRLSCAASGFTFSSYGMHWVRQAPGKGLEWVAVIWYDGSNEYYADSVKGRFTISRDNSKNTLYLQMNSLRAEDTAVYYCARGAYHFAYWGQGTLVTVSS VL: DIQMTQSPSSLSASVGDRVTITCQASQDISNYLNWYQQKPGKAPKLLIYDASNLETGVPSRFSGSGSGTDFTFTISSLQPEDIATYSCQHSDNLSITFGQGTRLEIKR
0.00023
